Values from patent US11981658B2

# assayed.target: EGFR L858R/C797S (Homo sapiens, UniProt P00533, C797S/L858R)
# Sequence (P00533 25-1210 C797S/L858R): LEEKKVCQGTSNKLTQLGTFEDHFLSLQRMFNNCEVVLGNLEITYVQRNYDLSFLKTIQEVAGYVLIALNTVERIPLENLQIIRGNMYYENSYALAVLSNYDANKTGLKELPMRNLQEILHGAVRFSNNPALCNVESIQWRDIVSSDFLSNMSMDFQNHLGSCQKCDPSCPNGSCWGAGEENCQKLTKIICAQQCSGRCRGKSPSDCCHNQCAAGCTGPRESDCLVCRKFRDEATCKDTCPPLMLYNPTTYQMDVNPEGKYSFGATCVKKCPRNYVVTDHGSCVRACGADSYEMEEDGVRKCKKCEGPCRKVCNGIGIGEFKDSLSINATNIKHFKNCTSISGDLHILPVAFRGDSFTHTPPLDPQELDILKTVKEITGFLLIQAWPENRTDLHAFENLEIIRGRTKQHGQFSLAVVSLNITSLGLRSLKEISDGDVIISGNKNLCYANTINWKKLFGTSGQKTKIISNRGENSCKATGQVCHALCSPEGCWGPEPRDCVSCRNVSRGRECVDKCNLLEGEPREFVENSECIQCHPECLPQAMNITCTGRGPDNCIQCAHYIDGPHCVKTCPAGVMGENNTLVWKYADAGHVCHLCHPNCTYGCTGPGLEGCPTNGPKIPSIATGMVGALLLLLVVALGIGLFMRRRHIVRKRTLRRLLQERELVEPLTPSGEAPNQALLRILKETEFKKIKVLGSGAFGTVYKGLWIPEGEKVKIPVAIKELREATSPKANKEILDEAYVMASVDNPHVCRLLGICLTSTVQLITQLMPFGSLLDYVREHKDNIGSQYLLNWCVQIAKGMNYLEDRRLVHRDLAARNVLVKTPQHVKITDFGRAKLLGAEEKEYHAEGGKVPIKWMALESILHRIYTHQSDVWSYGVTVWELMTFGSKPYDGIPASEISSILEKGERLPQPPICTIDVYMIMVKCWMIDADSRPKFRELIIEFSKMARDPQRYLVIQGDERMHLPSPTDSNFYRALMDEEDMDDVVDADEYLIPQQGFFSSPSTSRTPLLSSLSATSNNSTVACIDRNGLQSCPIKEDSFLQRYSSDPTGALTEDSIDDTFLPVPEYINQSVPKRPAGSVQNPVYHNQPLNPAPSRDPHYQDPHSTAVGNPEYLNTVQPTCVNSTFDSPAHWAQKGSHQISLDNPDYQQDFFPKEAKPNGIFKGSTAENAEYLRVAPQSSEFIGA
# experiment: Biochemical EGFR kinase inhibition assay (Lance Ultra TR-FRET), double mutant L858R/C797S
# condition: IC50 L858R/C797S (nM), 100 μM ATP
Would you kindly list IC50 for each of these compounds?
One number for each entry, in nM.

A selection of reference data follows.
compound: CC1(CO)CCN(c2cc(Nc3ccnc(-c4cnn(S(=O)(=O)C5CC5)c4)n3)ncc2C#Cc2cn(CC(F)F)c3ccncc23)CC1
assayed.target: EGFR L858R/C797S (Homo sapiens, UniProt P00533, C797S/L858R)
endpoint: IC50
meas.value: 29.7
//
compound: CN(C)CC1(C)CCN(c2cc(Nc3ccnc(-c4cnn(S(=O)(=O)C5CC5)c4)n3)ncc2C#Cc2cnn(C)c2)CC1
assayed.target: EGFR L858R/C797S (Homo sapiens, UniProt P00533, C797S/L858R)
endpoint: IC50
meas.value: 9
//
compound: CN1CCC(C#Cc2cnc(Nc3ccnc(-c4cnn(S(=O)(=O)C5CC5)c4)n3)cc2N2CCC(C)(CO)CC2)C1 (stereo not shown)
assayed.target: EGFR L858R/C797S (Homo sapiens, UniProt P00533, C797S/L858R)
endpoint: IC50
meas.value: 2.7

Batch request: IC50 for each of the following compounds.
1. CNCCC1CCN(c2cc(Nc3ccnc(-c4cnn(S(=O)(=O)C5CC5)c4)n3)ncc2C#Cc2cnn(C)c2)CC1
2. CC1(CO)CCN(c2cc(Nc3ccnc(-c4cnn(S(=O)(=O)C5CC5)c4)n3)ncc2C#CC2CCOC2)CC1 (stereo not shown)

[5.1, 8.9]
